# Tested on: CVB-3
# protocol-summary: Anticoxsackieviral HI-HeLa Cell Culture Assay (XTT dye reduction)
# Assay type: cell-based, Coxsackie strain B-3 (CVB-3)
# cond: 24 h, HI-HeLa cells infected with CVB-3, m.o.i. 0.08, one day
For each entry below, report its EC50 value.
Give bare numbers, in µM.

1. CON(C)C(=O)/C=C/[C@H](CCC(N)=O)NC(=O)[C@H](Cc1ccccc1)NC(=O)[C@H](CC(C)C)NC(=O)OCc1ccccc1 | 17.8

Attention now shifts to the item below.
Provide value of EC50 for this record tested with CVB-3: CC(C)C[C@H](NC(=O)OCc1ccccc1)C(=O)N[C@@H](Cc1ccccc1)C(=O)N[C@H](/C=C/C(=O)N1CCCC1)CCC(N)=O
158

----------
# protocol-summary: Cytotoxicity in mock-infected HI-HeLa cells (anticoxsackieviral assay, XTT)
# Assay type: cell-based
# cond: human; mock-infected HI-HeLa cells; one day; XTT
recorded-metric: CC50 at 1 day

1) CCOC(=O)c1ccc(OCCC2CCN(c3ccc(C)nn3)CC2)cc1 [Pirodavir, reference compound] | > 100 µM
2) CON(C)C(=O)/C=C/[C@H](CCC(N)=O)NC(=O)[C@H](Cc1ccccc1)NC(=O)[C@H](CC(C)C)NC(=O)OCc1ccccc1 | > 100 µM
3) CC(=O)/C=C/[C@H](CCC(N)=O)NC(=O)[C@H](Cc1ccccc1)NC(=O)[C@H](CC(C)C)NC(=O)OCc1ccccc1 | > 100 µM

Can you share its CC50 at 1 day? I mean this compound: CC(C)C[C@H](NC(=O)OCc1ccccc1)C(=O)N[C@@H](Cc1ccccc1)C(=O)N[C@H](/C=C/C(=O)N1CCCC1)CCC(N)=O
> 320 µM

----------
Can you tell me kobs/I for the items I'm about to list?
# target-desc: Recombinant Rhinovirus 3C protease (RVP) serotype-14 (Human rhinovirus 14)
# Construct: Recombinant Rhinovirus 3C proteases from serotypes 14, 16, 2 or 89; made in house
# Sequence (P03303 1538-1719): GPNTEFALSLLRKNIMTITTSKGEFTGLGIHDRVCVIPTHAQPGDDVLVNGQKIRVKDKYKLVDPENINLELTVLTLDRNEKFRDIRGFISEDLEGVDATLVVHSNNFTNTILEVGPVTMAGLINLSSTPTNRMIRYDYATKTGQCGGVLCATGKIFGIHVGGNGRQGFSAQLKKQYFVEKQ
# protocol-summary: Inhibition of Rhinovirus Protease (fluorescence resonance energy transfer assay), serotype 14
# Format: biochemical, human rhinovirus (HRV)
# cond: RVP serotype-14; progress curves in enzyme start experiments

1) CC(C)C[C@H](NC(=O)OCc1ccccc1)C(=O)N[C@@H](Cc1ccccc1)C(=O)N[C@H](/C=C/C(=O)N1CCc2ccc(S(C)(=O)=O)cc21)CCC(N)=O | 12,900 M-1 sec-1
2) CC(C)C[C@H](NC(=O)OCc1ccccc1)C(=O)N[C@@H](Cc1ccccc1)C(=O)N[C@H](/C=C/C(=O)N1CCCCO1)CCC(N)=O | 18,650 M-1 sec-1

Here's the next entry for you.
Which kobs/I is listed for CCOC(=O)/C=C/[C@H](CCC(N)=O)NC(=O)[C@H](Cc1ccccc1)NC(=O)[C@H](CC(C)C)NC(=O)C(C)C ?
18,760 M-1 sec-1

----------
I'd appreciate it if you could supply CC50 at 2 days values for the items below.
# protocol-summary: Cytotoxicity in mock-infected HI-HeLa cells (antirhinoviral assay, XTT)
# Assay type: cell-based
# cond: human; mock-infected HI-HeLa cells; two days; XTT; read-out: CC50

Give me CC50 at 2 days for each of these compounds, listed below.
1. CCOC(=O)/C=C/[C@H](CCC(N)=O)NC(=O)[C@H](Cc1ccccc1)NC(=O)[C@@H](NC(=O)OCc1ccccc1)C(C)O (stereo partly drawn) [Compound 152]
2. CC(C)C[C@H](NC(=O)OCc1ccccc1)C(=O)N[C@@H](Cc1ccccc1)C(=O)N[C@H](/C=C/C(=O)N1CCc2cc(Br)ccc21)CCC(N)=O [Compound 94]
3. CCOC(=O)/C=C/[C@H](CCC(N)=O)NC(=O)[C@H](Cc1ccccc1)NC(=O)[C@@H](NC(=O)SCC)C(C)C [Compound 180]

1: > 320 µM; 2: > 320 µM; 3: > 100 µM

----------
Assignment: determine reported CC50 for the given compounds.
# System: HI-HeLa cells
# protocol-summary: Cytotoxicity in mock-infected HI-HeLa cells (antirhinoviral assay, XTT)
# Type: cell-based

Some compounds with known CC50 results, for comparison:
1. CCOC(=O)/C=C/[C@H](CCC(N)=O)NC(=O)[C@H](Cc1ccc(F)cc1)NC(=O)[C@@H](NC(=O)SC1CCCC1)C(C)(C)C | > 100 µM
2. CC(C)CC(NC(=O)OCc1ccccc1)C(=O)NC(Cc1ccccc1)C(=O)NC(C=CC(=O)N1CCC(O)C1)CCC(N)=O (stereo not drawn) | > 320 µM
3. CC(C)C[C@H](NC(=O)OCc1ccccc1)C(=O)N[C@@H](Cc1ccccc1)C(=O)N[C@H](/C=C/C(=O)c1ccc2c(c1)OCO2)CCC(N)=O | 45 µM
4. CCOC(=O)/C=C/[C@H](CCC(N)=O)NC(=O)[C@H](Cc1ccc(O)cc1)NC(=O)[C@H](CC(C)C)NC(=O)OCc1ccccc1 | > 320 µM
5. CC(C)C[C@H](NC(=O)OCc1ccccc1)C(=O)N[C@@H](Cc1ccccc1)C(=O)N[C@H](/C=C/C(=O)N1CC=CC1)CCC(N)=O | 56 µM
6. CCOC(=O)/C=C/[C@H](CCC(N)=O)NC(=O)[C@H](C)NC(=O)[C@H](CC(C)C)NC(=O)OCc1ccccc1 | > 320 µM

Hey, can you go through the list below and give me CC50 for every item?
1. COC(=O)/C=C/[C@H](CCC(N)=O)NC(=O)[C@H](Cc1ccccc1)NC(=O)[C@H](CC(C)C)NC(=O)OCc1ccccc1
2. CCOC(=O)/C=C/[C@H](CCC(N)=O)NC(=O)[C@H](Cc1ccccc1)NC(=O)[C@H](CCc1ccccc1)NC(=O)SCc1ccccc1
3. CCOC(=O)/C=C/[C@H](CNC(N)=O)NC(=O)[C@H](Cc1ccccc1)NC(=O)[C@H](CC(C)C)NC(=O)OCc1ccccc1
4. CC(=O)N1CC/C(=C\[C@H](CCC(N)=O)NC(=O)[C@H](Cc2ccc(F)cc2)NC(=O)[C@H](CSc2ccccc2)NC(=O)SC2CCCC2)C1=O
5. CC(C)C[C@H](NC(=O)OCc1ccccc1)C(=O)N[C@@H](Cc1ccccc1)C(=O)N[C@H](/C=C/C(=O)C(C)(C)C)CCC(N)=O

1: > 320 µM; 2: > 100 µM; 3: > 100 µM; 4: > 100 µM; 5: 5.6 µM

Value lookup for CC50; key = CC(C)C[C@H](NC(=O)OCc1ccccc1)C(=O)N[C@@H](Cc1ccccc1)C(=O)N[C@H](/C=C/CSc1ccccn1)CCC(N)=O
> 100 µM

----------
# target-desc: Recombinant Rhinovirus 3C protease (RVP) serotype-14 (Human rhinovirus 14)
# Construct: Recombinant Rhinovirus 3C proteases from serotypes 14, 16, 2 or 89; made in house
# protocol-summary: Inhibition of Rhinovirus Protease (fluorescence resonance energy transfer assay), serotype 14
# Assay type: biochemical, human rhinovirus (HRV)
Provide the recorded Ki for the entries that follow.
One number for each entry, in µM.

For orientation, consider the following solved cases.
1) CCOC(=O)/C=C/[C@H](CCC(N)=O)NC(=O)[C@H](Cc1ccccc1)NC(=O)[C@H](CCC(=O)O)NC(=O)OCc1ccccc1 | 1.1
2) CC(C)C[C@H](NC(=O)OCc1ccccc1)C(=O)N[C@@H](Cc1ccccc1)C(=O)N[C@H](/C=C/CCl)CCC(N)=O | 2.4
3) CCOC(=O)/C=C/[C@H](CCC(N)=O)NC(=O)[C@H](Cc1ccccc1)NC(=O)[C@H](CC(C)C)NC(=O)SCC | 6
4) CCOC(=O)/C=C/[C@H](CCC(N)=O)NC(=O)[C@H](Cc1ccccc1)NC(=O)[C@H](CC(C)C)NC(=O)CO | 5
5) COC(=O)/C=C\[C@H](CCC(N)=O)NC(=O)[C@H](Cc1ccccc1)NC(=O)[C@H](CC(C)C)NC(=O)OCc1ccccc1 | 9.5

Parameters: items (list). Returns: Ki for each item.
1. CC(C)C[C@H](NC(=O)OCc1ccccc1)C(=O)N[C@@H](Cc1ccccc1)C(=O)N[C@H](/C=C\CCl)CCC(N)=O
2. CCOC(=O)/C=C/[C@H](CCC(=O)NC(c1ccccc1)(c1ccccc1)c1ccccc1)NC(=O)[C@H](Cc1ccccc1)NC(=O)[C@H](CC(C)C)NC(=O)OCc1ccccc1
3. CCOC(=O)/C=C/[C@H](CCC(N)=O)NC(=O)[C@H](Cc1ccccc1)NC(=O)[C@@H](NC(=O)SCC)C(C)C
4. CCOC(=O)/C=C/[C@H](CCC(N)=O)NC(=O)[C@H](Cc1ccc(C#N)cc1)NC(=O)[C@H](CC(C)C)NC(=O)OCc1ccccc1
5. CC(C)C[C@H](NC(=O)OCc1ccccc1)C(=O)N[C@@H](Cc1ccccc1)C(=O)N[C@H](/C=C/C(=O)N1CCc2ccccc21)CCC(N)=O
6. CC(C)C[C@H](NC(=O)OCc1ccccc1)C(=O)N[C@@H](Cc1ccccc1)C(=O)N[C@H](/C=C/C(=O)OC1CCCCC1)CCC(N)=O

[7, 6.6, 0.42, 10, 3, 5.5]

Please look at the items below and tell me Ki for each one, in order.
1. CCOC(=O)/C=C/[C@H](CCC(N)=O)NC(=O)[C@H](Cc1ccccc1)NC(=O)[C@H](CC(C)C)NC(=O)c1ccc(Oc2ccccc2)cc1
2. CC(C)C[C@H](NC(=O)OCc1ccccc1)C(=O)N[C@@H](Cc1ccccc1)C(=O)N[C@H](/C=C/C(=O)N1CCc2cccc(Cl)c21)CCC(N)=O
3. CC(C)C[C@H](NC(=O)OCc1ccccc1)C(=O)N[C@@H](Cc1ccccc1)C(=O)N[C@H](/C=C/C(=O)N1CCCC1)CCC(N)=O
4. CC(C)C[C@H](NC(=O)OCc1ccccc1)C(=O)N[C@@H](Cc1ccccc1)C(=O)N[C@H](/C=C/C(=O)N1CCc2cc(F)ccc21)CCC(N)=O
5. CCOC(=O)/C=C/[C@H](CCC(N)=O)NC(=O)[C@H](Cc1ccccc1)NC(=O)[C@H](CC(C)C)NC(=O)SC

2.5
10
9.9
6
5
